Reported values of hERG current change (%, negative = inhibition) at 10uM for individual entries
target: human ether-à-go-go-related gene (hERG) potassium channel (human); experiment: primary screen, population patch clamp on CHO cells stably expressing hERG; higher = less effect of the substance;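 note: peak tail current of the secondary pulse compared with the same well before compound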
Sequence (Q12809 whole entry, looked up): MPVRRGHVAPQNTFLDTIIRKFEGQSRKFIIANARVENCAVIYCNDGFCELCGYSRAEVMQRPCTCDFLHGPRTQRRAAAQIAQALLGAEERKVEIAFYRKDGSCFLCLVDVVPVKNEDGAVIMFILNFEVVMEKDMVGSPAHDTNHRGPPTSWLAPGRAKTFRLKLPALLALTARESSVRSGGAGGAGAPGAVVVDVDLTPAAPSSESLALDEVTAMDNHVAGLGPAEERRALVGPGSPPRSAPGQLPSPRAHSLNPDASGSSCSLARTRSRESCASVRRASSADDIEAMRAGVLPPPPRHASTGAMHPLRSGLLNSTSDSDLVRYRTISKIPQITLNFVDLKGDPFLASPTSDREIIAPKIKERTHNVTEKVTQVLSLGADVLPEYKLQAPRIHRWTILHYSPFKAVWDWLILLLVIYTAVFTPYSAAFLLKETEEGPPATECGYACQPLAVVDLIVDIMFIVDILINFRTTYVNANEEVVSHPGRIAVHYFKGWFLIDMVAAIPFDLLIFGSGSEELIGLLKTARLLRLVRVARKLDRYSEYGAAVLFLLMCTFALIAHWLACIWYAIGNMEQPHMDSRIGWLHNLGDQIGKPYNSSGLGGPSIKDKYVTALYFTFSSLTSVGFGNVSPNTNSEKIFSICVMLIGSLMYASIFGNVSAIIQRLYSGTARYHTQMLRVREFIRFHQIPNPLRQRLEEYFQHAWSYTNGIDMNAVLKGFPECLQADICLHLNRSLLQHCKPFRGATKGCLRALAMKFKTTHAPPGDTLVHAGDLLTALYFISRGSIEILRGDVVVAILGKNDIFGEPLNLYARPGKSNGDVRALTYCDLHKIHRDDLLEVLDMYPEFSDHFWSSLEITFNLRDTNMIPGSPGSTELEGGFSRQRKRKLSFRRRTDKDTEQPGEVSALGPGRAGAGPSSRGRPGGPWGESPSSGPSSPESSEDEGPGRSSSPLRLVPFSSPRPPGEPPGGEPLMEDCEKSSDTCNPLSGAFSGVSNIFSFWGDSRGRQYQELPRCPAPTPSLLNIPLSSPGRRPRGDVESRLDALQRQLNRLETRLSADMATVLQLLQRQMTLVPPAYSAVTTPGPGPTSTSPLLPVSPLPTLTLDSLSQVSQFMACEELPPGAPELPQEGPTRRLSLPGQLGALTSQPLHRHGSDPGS
In all, about 310,000 compounds went through this assay and about 14,000 (4.5%) showed an effect of 50% or more. The effect is printed as a negative number. This is one part of a sample in which strong results are shown more often than they occur.
Numeric only. Scale: %

compound: CCC(=O)NC(c1cccs1)c1cc(Cl)c2cccnc2c1O (stereo not drawn)
uom: %
endpoint value: -2.87

compound: COc1ccc(N(C(=O)c2ccco2)S(=O)(=O)c2ccccc2)cc1
uom: %
endpoint value: -44.3

compound: CCc1ccc(NC(=O)C2CCN(S(=O)(=O)c3ccc4[nH]c(=O)ccc4c3)CC2)cc1
uom: %
endpoint value: 3.6

compound: CSc1ncc(CN2CCN(C(C)C)C(CCO)C2)cn1 (stereo not drawn)
uom: %
endpoint value: -2.82

compound: CCOc1ccc(CN2CCN(Cc3cccn3-c3cccnc3)CC2CCO)cc1 (stereo not drawn)
uom: %
endpoint value: -84.1

compound: Cc1ccc(-n2nnnc2SCC(=O)c2c(N)n(C3CC3)c(=O)[nH]c2=O)c(C)c1
uom: %
endpoint value: -4.23

compound: OCCC1CN(Cc2cccn2-c2cccnc2)CCN1C1CCCCC1 (stereo not drawn)
uom: %
endpoint value: -28.1

compound: CCOC(=O)C1=C(c2ccccc2)Nc2ncnn2C1c1ccc(OC)c(OC)c1OC (stereo not drawn)
uom: %
endpoint value: -5.55

Data point: COc1ccc(CC(=O)N/N=C/c2ccc(C)s2)cc1 ; hERG current change (%, negative = inhibition) at 10uM = 11

response.value for O=C(O)c1ccc(NS(=O)(=O)c2ccc(Cl)c(Cl)c2)cc1O (field: hERG current change (%, negative = inhibition) at 10uM) = -1.71

Consider CCOc1ccc(CN2CCN(Cc3cccn3-c3ncccn3)CC2CCO)cc1 (stereo not drawn) . Its measured hERG current change (%, negative = inhibition) at 10uM is -78.3

According to the records, this compound CC(c1ccc(F)cc1)n1c(-c2ccc3ccccc3n2)n[nH]c1=S (stereo not drawn) displays hERG current change (%, negative = inhibition) at 10uM of 18.1

Field hERG current change (%, negative = inhibition) at 10uM (entry CCCn1c(NCc2cccc(OC)c2OC)nc2ccccc21 ) reads -13.9

For C=CCn1c(NCc2ccccc2OC)nc2ccccc21 the compound record lists hERG current change (%, negative = inhibition) at 10uM as -18.9

Looking up O=C(Oc1ccc(/C=N/NC(=O)c2ccccc2F)cc1)c1ccccc1 , I found its hERG current change (%, negative = inhibition) at 10uM recorded as 10.3

So for CCOc1ccccc1CN1CCN(Cc2cccc3c2OCO3)CC1CCO (stereo not drawn) , the logged hERG current change (%, negative = inhibition) at 10uM turned out to be -62.6

Field hERG current change (%, negative = inhibition) at 10uM (entry COc1ccc(OC)c(Nc2nc(NCc3ccco3)c3ccccc3n2)c1.Cl ) reads -12.2
